test.protocol: physchem
condition.parameters: alcohol, organic solvent or mixture
measured.property: solubility

Quick check: solubility of CCCCC/C=C\C/C=C\C/C=C\CCCCC(=O)[O-].[Li+] [Lithium gammalinolenate, Lithium gamma-linolenate] ?
> 30 mg/mL

###

test.protocol: physchem
condition.parameters: water
measured.property: solubility

Quick check: solubility of CCCCC/C=C\C/C=C\C/C=C\CCCCC(=O)[O-].[Li+] [Lithium gammalinolenate, Lithium gamma-linolenate] ?
> 30 mg/mL

Measured values drawn from patent EP0289204B1 for this set.
